All figures here come from patent US20210246166A1.

- target-entity: recombinant human MASP2 active protease (amino acids 297-686, C-terminal His Tag) (human, UniProt O00187 297-686)
- Sequence (O00187 other isoform, or with tags, fused parts or gaps limits assumed): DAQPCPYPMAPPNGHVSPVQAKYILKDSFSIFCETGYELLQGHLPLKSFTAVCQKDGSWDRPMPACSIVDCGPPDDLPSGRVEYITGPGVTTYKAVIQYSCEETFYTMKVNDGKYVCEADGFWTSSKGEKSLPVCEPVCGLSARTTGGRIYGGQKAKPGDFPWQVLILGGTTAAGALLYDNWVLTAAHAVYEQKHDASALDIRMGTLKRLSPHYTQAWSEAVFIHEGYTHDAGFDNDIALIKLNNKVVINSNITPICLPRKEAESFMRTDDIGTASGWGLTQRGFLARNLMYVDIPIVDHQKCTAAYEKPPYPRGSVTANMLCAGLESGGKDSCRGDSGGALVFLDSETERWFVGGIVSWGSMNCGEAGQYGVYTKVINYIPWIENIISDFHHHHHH
- measurement-notes: cell-based or functional assay
Bridge positions count the residues as written; N and C are the ends. Square brackets hold non-standard residues; d marks the D form. Ends that are not written are not given here. Oic = O=C(O)[C@@H]1C[C@@H]2CCCC[C@@H]2N1; tBuAla = CC(C)(C)C[C@H](N)C(=O)O; NMeC = CN[C@@H](CS)C(=O)O
test-readout: human MASP2 IC50 (nM)
Give your result in nM as a bare value.

- AICSRSLP[Oic]ICIPD-OH (disulfide 3-11; N-terminus assumed; SMILES CC[C@H](C)[C@H](NC(=O)[C@H](C)N)C(=O)N[C@H]1CSSC[C@@H](C(=O)N[C@H](C(=O)N2CCC[C@H]2C(=O)N[C@@H](CC(=O)O)C(=O)O)[C@@H](C)CC)NC(=O)[C@H]([C@@H](C)CC)NC(=O)[C@@H]2C[C@@H]3CCCC[C@@H]3N2C(=O)[C@@H]2CCCN2C(=O)[C@H](CC(C)C)NC(=O)[C@H](CO)NC(=O)[C@H](CCCNC(=N)N)NC(=O)[C@H](CO)NC1=O) [AIC+SRSLP-(Oic)-IC+IPD-OH]: 316

Value of measured human MASP2 IC50 for the entry KICSRS[tBuAla]PPI[NMeC]IPD-NH2 (disulfide 3-11; N-terminus assumed; SMILES CC[C@H](C)[C@H](NC(=O)[C@@H](N)CCCCN)C(=O)N[C@H]1CSSC[C@@H](C(=O)N[C@H](C(=O)N2CCC[C@H]2C(=O)N[C@@H](CC(=O)O)C(N)=O)[C@@H](C)CC)N(C)C(=O)[C@H]([C@@H](C)CC)NC(=O)[C@@H]2CCCN2C(=O)[C@@H]2CCCN2C(=O)[C@H](CC(C)(C)C)NC(=O)[C@H](CO)NC(=O)[C@H](CCCNC(=N)N)NC(=O)[C@H](CO)NC1=O) [KIC+SRS-((tBu)A)-PPI-((N-Me)C)+IPD-NH2] : 120
